target: GST-KIAA1634 PDZ domain 1 (Homo sapiens (Human)), Q5TCQ9; assay: G' assay; further: key of the grades not given here
Sequence (Q5TCQ9 401-502): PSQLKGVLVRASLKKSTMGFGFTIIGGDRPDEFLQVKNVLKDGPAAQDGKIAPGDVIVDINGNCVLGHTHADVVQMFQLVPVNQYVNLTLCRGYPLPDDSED
Assay endpoint: Classification (A450 class)
Dear colleague, please return just the value in A450 class, with no unit written.

Examples from the recorded data:
Binder: TFAAGFNSTGLPHSTTRV (modifications not checked) [Neuroligin]
Reading: 4
//
Binder: TQGFPGPATWRRISSLESEV (modifications not checked) [NMDA Glutamate Receptor 2C (cysteine-free)]
Reading: 5
//
Binder: ERASSVYTRSTGEQEISVGL (modifications not checked) [CKR5 (HIV Co-receptor)]
Reading: 1
//
Binder: PIPAGGCTFSGIFPTLTSPL (modifications not checked) [KIA 1481]
Reading: 2
//
Binder: LHNQASVPLEPRPLRRESEI (modifications not checked) [Kir2.1 (inwardly rect. K+ channel)]
Reading: 1
//
Binder: VGTLLLERVIFPSVKIATLV (modifications not checked) [AdenoE4 typ9]
Reading: 5

Query :: Given the binder RELVDRGEVRQFTLRHWLKV (modifications not checked) [Dopamine transporter] , what is its reported Classification?
Result :: 3

FYI, the data here is from patent US20050282743A1.
